Assay: Cell Viability - BJ (AID 421);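 note: potency is the fitted concentration of half-maximal effect; cells exposed to compound for 40 hours at 37 °C before readout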
Settings: BJ fibroblast viability, qHTS
Records with an inconclusive call do not appear. Calls of active or inactive are those of the source. Calls come from the whole dose curve.
Classes used: active, inactive

1) O=[N+]([O-])c1cccc2ccccc12
inactive
2) ClC1=C(Cl)C2(Cl)C3C4C=CC(C4)C3C1(Cl)C2(Cl)Cl (stereo not given)
inactive
3) O=C1C(Cl)=C(Cl)C(=O)C(Cl)=C1Cl
active
4) CC(Cl)Cl
inactive
5) ClC(Cl)=C(Cl)Cl
inactive
6) O=S1OCC2C(CO1)C1(Cl)C(Cl)=C(Cl)C2(Cl)C1(Cl)Cl (stereo not given)
inactive
7) COc1ccc(N)cc1
inactive
8) Cc1ccc2ccccc2c1
inactive
9) C[C@H]1CCCC(=O)CCC/C=C/c2cc(O)cc(O)c2C(=O)O1
inactive
10) C=CC(=C)C
inactive
11) O=[N+]([O-])c1ccc(Cl)c(Cl)c1
inactive
12) COc1ccc(C=O)cc1OC
inactive
13) Cc1ccc(O)c(C)c1
inactive
14) Brc1ccccc1
inactive
15) C/C=C/c1ccc2c(c1)OCO2
inactive

---

Assay: qHTS assay for small molecule activators of the nuclear factor-kappa B (NF-kB) signaling pathway (AID 651749); note: % of control where 0% means no effect
Settings: NF-kB-bla ME-180 cells, beta-lactamase FRET ratio, 16 h; hits give high values
Inconclusive results are not listed.
As shown below, each of these molecules has a reported activation value.
assayEndpoint: activation (%)

1) N#Cc1c(Cl)cccc1Cl
-0.285
2) CNC(=O)N(C)c1nnc(C(C)(C)C)s1
-0.0908
3) CCCC(=O)Cl
-0.622
4) O=S1OCC2C(CO1)C1(Cl)C(Cl)=C(Cl)C2(Cl)C1(Cl)Cl (stereo not given)
1.74
5) O=C(Cl)/C=C/C(=O)Cl
2.63
6) COC1=CC(=O)OC(CCc2ccccc2)C1 (stereo not given)
-1.07
7) CNC(=O)Oc1ccccc1OC(C)C
-2.6
8) COP(=S)(OC)Oc1ccc([N+](=O)[O-])cc1
-0.601
9) O=[N+]([O-])c1ccc(Cl)c(Cl)c1
-0.387
10) Nc1ccc(Br)cc1
-0.0985
11) C/C=C/c1ccc2c(c1)OCO2
-1.42
12) ClC1=C(Cl)C2(Cl)C3C(Cl)C=CC3C1(Cl)C2(Cl)Cl (stereo not given)
1.89
13) CC(C)(C)OOC(C)(C)C
1.21
14) C=CCc1ccc2c(c1)OCO2
-0.401
15) Cc1cccc(C#N)c1
0.885
16) S=C=Nc1cccc2ccccc12
2.04
17) CCS(=O)CCSP(=O)(OC)OC (stereo not given)
-0.59
18) CNC(=O)Oc1cccc2c1OC(C)(C)O2
-0.841
19) CC(C)OC(=O)Nc1cccc(Cl)c1
0.165
20) CCCCCCCC(=O)Cl
-0.835

---

Assay: Cell Viability - Jurkat (AID 426);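 note: potency is the fitted concentration of half-maximal effect; cells exposed to compound for 40 hours at 37 °C before ATP read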
Details: qHTS
Results filed as inconclusive are left out. The source made the active and inactive calls.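 The calls were made as follows: active = dose-dependent loss of cell ATP signal giving a full or clear fitted curve, ranked by lower potency value; inconclusive = weak partial curve or response only at the top dose; inactive = no loss of viability signal.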
Classes used: active, inactive

1) CC(C)(C)OOC(C)(C)C
inactive
2) CCCCCCCC(=O)Cl
inactive
3) ClC(Cl)(Cl)c1ccccc1
inactive
4) Clc1ccc2ccccc2c1
inactive
5) Clc1cc(Cl)c(-c2cc(Cl)c(Cl)cc2Cl)cc1Cl
inactive
6) CC(O)CCl (stereo not drawn)
inactive
7) c1ccc2c(c1)CCCC2
inactive
8) C[N+](C)(C)Cc1ccccc1
inactive
9) Cc1cccc([N+](=O)[O-])c1
inactive
10) CCN(CC)c1ccccc1
inactive
11) Oc1ccc(Cl)cc1Cl
inactive
12) CCCOC(=O)c1ccccc1C(=O)OCCC
inactive
13) Clc1nc(Cl)nc(Cl)n1
inactive
14) C[C@]12CC[C@H]3[C@@H](CCC4=CC(=O)CC[C@@]43C)[C@@H]1CC[C@@H]2O
inactive
15) C=CCOC(C)=O
inactive
16) ClC(Cl)=C(Cl)C(Cl)=C(Cl)Cl
inactive
17) CC(=O)[O-].CC(=O)[O-].O.O.O.[Pb+2]
inactive
18) Nc1ccccc1Cl
inactive
19) O=NN(CCO)CCO
inactive
20) O=C=NC1CCCCC1
inactive
21) COP(=S)(OC)Oc1ccc([N+](=O)[O-])cc1
inactive
22) BrCCBr
inactive
23) S=C=Nc1cccc2ccccc12
inactive
24) CN=C=S
inactive
25) CCNc1nc(Cl)nc(NC(C)C)n1
inactive
26) O=C(O)COc1ccc(Cl)cc1Cl
inactive
27) CCOCN(C(=O)CCl)c1c(C)cccc1CC
active
28) Clc1nc(Cl)nc(Nc2ccccc2Cl)n1
inactive
29) CCCCOCCOP(=O)(OCCOCCCC)OCCOCCCC
inactive
30) C=CC(=C)C
inactive
31) C=C(C)C(=O)OCC1CO1 (stereo not drawn)
inactive
32) c1ccc(OP(Oc2ccccc2)Oc2ccccc2)cc1
inactive
33) ClC(Cl)=C(Cl)Cl
inactive

---

Assay: NFAT Signaling Pathway (AID 444);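 note: carbachol stimulus at about its EC50 of 1 µM final; % is set by controls: 0 for no effect and ±100 for the full control effect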
Details: Jurkat NFAT-bla M1, carbachol, beta-lactamase ratio, 5 h; at 7.69 µM (top of the series)
Results filed as inconclusive are left out.
As shown below, each of these molecules has a reported activity change, negative = inhibition value.
assayEndpoint: activity change, negative = inhibition (%)

1. COc1ccc(NC(=O)N2CCC3(CC2)CCN(C(=O)Oc2ccccc2)CC3)cc1
5.41
2. CN1CC[C@@]2(CCCN(C(=O)c3ccco3)C2)C1
-15.5
3. O=C(c1cnccn1)N1CCC2(CC1)CN(Cc1ccncc1)C2
-23.5
4. O=C(Nc1cccc(F)c1)N1CCC2(CC1)CCN(C(=O)Oc1ccccc1)CC2
12
5. O=C(c1ccco1)N1CCC[C@@]2(CCN(Cc3ccncc3)C2)C1
-1.52
6. Cc1nc2cnc(N3CCNCC3)nc2n(C)c1=O
5.09
7. O=C(Nc1ccccc1)N1CC[C@@]2(CCCNC2)C1
19.4
8. O=C(Oc1ccccc1)N1CCC2(CC1)CN(C(c1ccccc1)c1ccccc1)C2
-29.6
9. N#Cc1cccc(NC(=O)N2CC3(CCN(C(=O)Oc4ccccc4)CC3)C2)c1
17.6
10. CS(=O)(=O)N1CCC2(CCCN(Cc3ccncc3)C2)CC1
-20.7
11. c1ccc(CN2CC[C@@]3(CCCNC3)C2)cc1
2.89

---

Test system: PC15
Assay: qHTS profiling for inhibitors of Plasmodium falciparum proliferation (AID 504749); note: nearly all actives have a fitted effect of over 60% in size; note: potency is the fitted concentration of half-maximal effect
Conditions: P. falciparum in erythrocytes, SYBR Green DNA, 72 h; series mostly up to 28.7 µM
Records with an inconclusive call do not appear. Activity calls are given as the source filed them. The call rests on the fitted dose curve; in most records, active means well fitted inhibition curve with a large enough effect; inconclusive means small, poorly fitted or top-dose-only effect; inactive means flat fitted curve, though single readings scatter.
assayEndpoint: Potency

1) [Hg+][c]1ccccc1
7.94 µM (active)
2) COc1cc2c(cc1OC)[C@@]13CCN4CC5=CCOC6CC(=O)N2C1[C@H]6[C@@H]5C[C@@H]43 (stereo partly drawn)
inactive
3) C[C@@]12CCC(=O)C=C1C=C[C@H]1[C@H]3CC[C@](O)(CCC(=O)O)[C@]3(C)CC[C@@H]12
inactive
4) CC(=O)OC1C[C@H](O[C@@H]2C(O)C[C@H](O[C@@H]3C(O)C[C@@H](OC4CC[C@]5(C)C(CCC6C5CC(O)[C@@]5(C)C(C7=CC(=O)OC7)CC[C@@]65O)C4)OC3C)OC2C)O[C@H](C)[C@H]1O[C@H]1OC(CO)C(O)C(O)C1O (stereo partly drawn)
5.01 µM (active)
5) C[C@]12CC[C@H](OS(=O)(=O)O)CC1=CCC1C2CC[C@]2(C)C(=O)CC[C@@H]12 (stereo partly drawn)
inactive
6) CNC(C)[C@@H](O)c1ccc(O)cc1 (stereo partly drawn)
inactive
7) C[N+]1(C)[C@@H]2CC[C@H]1CC(OC(=O)[C@@H](CO)c1ccccc1)C2 (stereo partly drawn)
inactive
8) Clc1ccc([C@@H](OCCN2CCCCC2)c2ccccc2)cc1
3.16 µM (active)

---

System: CP265
Test: qHTS profiling for inhibitors of Plasmodium falciparum proliferation (AID 504749); note: nearly all actives have a fitted effect of over 60% in size
Conditions: P. falciparum in erythrocytes, SYBR Green DNA, 72 h; series mostly up to 12.8 µM
Records with an inconclusive call do not appear. Active and inactive are the calls of the source. Calls come from the whole dose curve; as a rule, active = well fitted inhibition curve with a large enough effect; inconclusive = small, poorly fitted or top-dose-only effect; inactive = flat fitted curve, though single readings scatter.
Classes used: true = active, false = inactive

1. C#CCN(C)[C@@H](C)Cc1ccccc1
false
2. CCC(C)C1O[C@]2(C=CC1C)CC1CC(C/C=C(\C)[C@H](OC3CC(OC)C(O[C@H]4CC(OC)[C@@H](O)C(C)O4)C(C)O3)[C@@H](C)/C=C/C=C3\COC4C(O)C(C)=C[C@H](C(=O)O1)[C@@]34O)O2 (stereo partly drawn)
true
3. CCN[C@]1(c2cccs2)CCCCC1=O
false
4. Oc1ccc2c3c1O[C@H]1[C@@H](O)CC[C@@]4(O)C(C2)N(CC2CCC2)CCC314 (stereo partly drawn)
false
5. CCNC[C@H](O)c1cccc(O)c1
false
6. C[C@@]12CCC(=O)C=C1C=C[C@H]1[C@H]3CC[C@](O)(CCC(=O)O)[C@]3(C)CC[C@@H]12
false
7. CC(=O)O[C@H]1CC[C@@]2(C)C(=CC[C@@H]3[C@H]2CC[C@]2(C)C(=O)CC[C@H]32)C1
false
8. CC(C)(O)C1C2OC(=O)C1[C@]1(O)C[C@H]3O[C@]34C(=O)O[C@H]2[C@]14C (stereo partly drawn) (tested in a mixture with another compound)
false
